- Tested on: PEG-3
- method notes: Peg3 promoter luciferase inhibitors, potency, dose response, cell-based, HeLa, CREF/GAPDH counter-screen panel (AID 624167)
- condition context: HeLa PEG-Prom luciferase reporter, overnight, CREF/GAPDH counter-screens, run 1, dose range 1, individual replicate IC50 per panel
recorded metric: IC50 (µM)
Express your answer in µM, writing the number without its unit.

CCSc1nc2ccccc2n1C(=O)/C=C\c1ccc(OC)c(OC)c1: 4.86
COc1cccc(N2CCN(CC(=O)Nc3ccccc3C(=O)NCc3ccccc3)CC2)c1: 16.6
CCC(C)NCCOCCOc1ccc(Cl)c2ccccc12 (stereo not given): 18.6

Requested field: IC50. Item: CN(C)CCCN(C(=O)c1ccc(C(=O)c2ccccc2)cc1)c1nc2cc3c(cc2s1)OCO3
18.8

Field entry: C=C1CC(COc2ccc3c(C)c(Cl)c(=O)oc3c2)(c2ccccc2)OC1=O (stereo not given)
6.47

Field entry: O=[N+]([O-])c1ccc(-c2nc(Nc3cccc(O)c3)c3ccccc3n2)cc1
13.4

Field entry: O=S(=O)(c1cccs1)N1CCN(c2ccnc3cc(Cl)ccc23)CC1
11.7

Field entry: O=C(Cn1ncc(Cl)c(Cl)c1=O)N1CCc2ccccc21
10.1

Field entry: CC(NNC(=S)N1CCN(c2ccccn2)CC1)c1nccc2ccccc12 (stereo not given)
15.2

* * *

Listed below: IC50 values for each entry.
- System: GAPDH
- method notes: Peg3 promoter luciferase inhibitors, potency, dose response, cell-based, HeLa, CREF/GAPDH counter-screen panel (AID 624167)
- condition context: CREF/GAPDH counter-screens, run 1, dose range 1, individual replicate IC50 per panel
Express your answer in µM, writing the number without its unit.

The cases that follow already have their IC50 on record.
NS(=O)(=O)c1ccc(CCNc2nn3c(-c4ccc(F)c(Cl)c4)cnc3s2)cc1: 12.9
Cc1ccc(OCC(=O)c2cc(C)n(-c3ccccc3)c2C)c([N+](=O)[O-])n1: 2.62
C(=N\Nc1ccc2ccccc2n1)/c1ccc2c(c1)OCCO2: 6.78
Cc1ccc(C)c(S(=O)(=O)N2CCN(c3ncnc4sccc34)CC2)c1: 9.4
CN(C)c1c([N+](=O)[O-])cc(N2C(=O)C=CC2=O)cc1[N+](=O)[O-]: 24.6

Give IC50 (GAPDH) of the following compound: Cc1cc(Br)ccc1NC(=O)CNC(=O)Cn1ncc(Cl)c(Cl)c1=O
10.1

Field entry: CN1CCC2(CC1)N=C(c1ccc(F)cc1)C(=S)N2C(=O)c1ccc(C(C)(C)C)cc1
20.4

Field entry: CS(=O)(=O)c1ccc(-c2cn3cc(C(=O)O)ccc3n2)cc1
24.6

Field entry: CN=c1sc2c(n1C)C(=O)c1ccccc1C2=O
29.9

Field entry: Oc1[nH]c2ccc(Br)cc2c1N=NC(=S)N1CCOCC1
18.8

Field entry: COC(=O)C1C=CC(OC2OC(COC(C)=O)C(OC(C)=O)C(OC(C)=O)C2OC(C)=O)n2c(=O)n(-c3ccccc3)c(=O)n21 (stereo unspecified)
19.4

Field entry: CCCCCCCn1c(=N)n(CC(=O)c2ccco2)c2ccccc21
27

Field entry: CC(=O)c1ccc(-c2cnc3c(NC=O)cc(-c4ccccc4Oc4ccccc4)cn23)cc1
91.1

Field entry: Cc1ccc(NC(=S)NC(=O)c2ccc(F)cc2)cc1S(=O)(=O)Nc1ccccc1Cl
44.2

Field entry: CC(=O)NC(c1ccc(Cl)cc1)c1ccc2cccnc2c1O (stereo unspecified)
58.8

Field entry: COc1ccc(/C=C2\SC(=S)N(CCCC(=O)NNC(=O)c3ccccc3O)C2=O)cc1
21.9

* * *

- System: Rat fibroblasts (CREF)
- method notes: Peg3 promoter luciferase inhibitors, potency, dose response, cell-based, HeLa, CREF/GAPDH counter-screen panel (AID 624167)
- condition context: CREF/GAPDH counter-screens, run 2, dose range 1, individual replicate IC50 per panel
recorded metric: pIC50
pIC50 field: float, defined as -log10 of concentration (mol/L).

Requested field: pIC50. Item: O=C(NCCc1ccccc1)c1ccc2c(c1)OCO2
5.25

Field entry: COC(=O)c1nn(-c2ccc3c(c2)CCN3C(C)=O)cc1O
5.40

Field entry: CC1=CC2C(C(O)CC3(C)C2CC(C)C32OCOC23COCO3)C2(C)C/C(=C\O)C(=O)C=C12 (configuration not stated)
5.03

* * *

- Tested on: PEG-3
- method notes: Peg3 promoter luciferase inhibitors, potency, dose response, cell-based, HeLa, CREF/GAPDH counter-screen panel (AID 624167)
- condition context: HeLa PEG-Prom luciferase reporter, overnight, CREF/GAPDH counter-screens, run 1, dose range 1, individual replicate IC50 per panel
recorded metric: pIC50
pIC50 field: float, defined as -log10 of concentration (mol/L).

O=C(N/N=C/c1sc(N2CCOCC2)nc1-c1ccccc1)c1cccc(S(=O)(=O)N2CCCC2)c1: 5.23
CN(C)CCNc1ccc2ncn3c4ccc(O)cc4c(=O)c1c23: 4.27
CCC1=C(CC2NCCc3ccccc32)CC2c3cc(OC)c(OC)cc3CCN2C1 (stereo not given): 4.82
CN1CCN(c2ccc(-c3ccc4ccccc4n3)cc2)CC1: 5.11
COc1cccc(-c2sc3ccc(OC)cc3c2-c2ccc(OCCN(C)C)cc2)c1: 4.80

Requested field: pIC50. Item: CS(=O)(=O)Nc1cccc(NC(=O)C2Cc3c(-c4cccc(F)c4)ccnc3O2)c1 (stereo not given)
5.51

* * *

- target: PEG-3 (UniProt Q6IN02)
- Sequence (Q6IN02 whole entry, looked up): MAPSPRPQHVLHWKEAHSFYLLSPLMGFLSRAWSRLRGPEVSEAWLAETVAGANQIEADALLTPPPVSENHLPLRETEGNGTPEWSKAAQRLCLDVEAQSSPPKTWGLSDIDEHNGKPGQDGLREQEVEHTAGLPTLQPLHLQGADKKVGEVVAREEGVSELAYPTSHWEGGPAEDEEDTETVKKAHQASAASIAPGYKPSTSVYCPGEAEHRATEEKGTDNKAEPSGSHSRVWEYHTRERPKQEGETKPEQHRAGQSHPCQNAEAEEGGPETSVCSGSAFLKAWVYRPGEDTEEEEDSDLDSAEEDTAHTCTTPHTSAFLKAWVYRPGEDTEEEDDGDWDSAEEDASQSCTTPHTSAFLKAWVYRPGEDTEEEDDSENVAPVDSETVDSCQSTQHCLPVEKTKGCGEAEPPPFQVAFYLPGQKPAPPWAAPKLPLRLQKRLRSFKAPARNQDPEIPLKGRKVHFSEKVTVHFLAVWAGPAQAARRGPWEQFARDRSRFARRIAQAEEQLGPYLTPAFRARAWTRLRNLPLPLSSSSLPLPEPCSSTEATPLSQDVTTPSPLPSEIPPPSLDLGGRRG
- method notes: Peg3 promoter luciferase inhibitors, potency, dose response, cell-based, HeLa, CREF/GAPDH counter-screen panel (AID 624167)
- condition context: HeLa PEG-Prom luciferase reporter, overnight, CREF/GAPDH counter-screens, mean of runs
Active and inactive are the calls of the source.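 Rule for the calls: active = mean IC50 for reducing PEG3 promoter reporter signal at or below a set limit, with IC50 above the limit in both counter screens; inactive = the rest, including counter screen hits.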
recorded metric: IC50

The cases that follow already have their IC50 on record.
O=C(NC1=NCCS1)C1COc2ccccc2O1 (configuration not stated): 1.88 µM
C(=N\Nc1nc2ccccc2[nH]1)/c1ccccn1: 4.06 µM
Cc1ccc(C2=NC(=O)/C(=C/c3cc(O)c(O)c(Br)c3)S2)cc1: inactive
COc1cccc(/C=N/NC(=O)c2c(-c3ccccc3)noc2C)c1O: inactive
COc1ccc(Nc2oc(COc3ccccc3OC)nc2C#N)cc1: inactive

Requested field: IC50. Item: COc1cc(NC(=O)Nc2nc(C(N)CCc3ccccc3)cs2)cc(OC)c1OC (configuration not stated)
inactive

Field entry: Cc1nc(-c2ccc(F)cc2)c(CC(=O)N(C)CC(=O)Nc2ccc(Cl)c(C(F)(F)F)c2)s1
inactive

* * *

- target: PEG-3 (UniProt Q6IN02)
- method notes: Peg3 promoter luciferase inhibitors, potency, dose response, cell-based, HeLa, CREF/GAPDH counter-screen panel (AID 624167)
- condition context: HeLa PEG-Prom luciferase reporter, overnight, CREF/GAPDH counter-screens, mean of runs
Activity calls are given as the source filed them.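 How the source made its calls: active means mean IC50 for reducing PEG3 promoter reporter signal at or below a set limit, with IC50 above the limit in both counter screens; inactive means the rest, including counter screen hits.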
Could you please pick one outcome from this set? active, inactive

For orientation, consider the following solved cases.
CCCCCCC=C1CCC(CN2CCCC2)C1=O (stereo not drawn): inactive
O=C1OCCC1Sc1nnc(-c2ccc(Cl)cc2Cl)o1 (stereo not drawn): inactive
COc1nc(N)c(C#N)c(-c2ccc(N(C)CCC#N)cc2)c1C#N: inactive
C=CCc1cccc(/C=N/NC(=O)C(C)Nc2cccc(C)c2)c1O (stereo not drawn): active

Would you mind telling me which call this test gave CN(C)S(=O)(=O)c1cccc(NC(=O)CSc2cccc3cccnc23)c1 ?
inactive

Field entry: COc1ccc(-c2cc(C(=O)N(C)Cc3ccc(OC)c(OC)c3OC)c3ccccc3n2)cc1OC
inactive

Field entry: O=C1C=CC(=O)N1c1ccc(-c2nc3ccccc3o2)cc1
active

Field entry: O=C(N/N=C/c1ccc(Cl)c([N+](=O)[O-])c1)c1cc(-c2ccc3c4c(cccc24)CC3)n[nH]1
active

Field entry: CCOC(=O)C1=C(COCCN)NC(C)=C(C(=O)OC)C1c1ccccc1Cl (stereo not drawn)
active

Field entry: Cc1cc(C)c2sc(N(CCCN(C)C)C(=O)c3ccc(S(=O)(=O)N(C)C4CCCCC4)cc3)nc2c1
active

Field entry: Cc1ccc2sc(N(CCCN(C)C)C(=O)c3ccc(S(=O)(=O)N(C)Cc4ccccc4)cc3)nc2c1C
active

Field entry: Oc1c(Br)cc(Br)c2cccnc12
active

Field entry: COc1ccc(S(=O)(=O)N2c3ccccc3OCC2c2ccccc2)cc1 (stereo not drawn)
inactive

Field entry: O=C(N/N=C\c1c(O)ccc2ccccc12)c1ccc(Cn2cccn2)o1
active

Field entry: CC1CCCCN1S(=O)(=O)c1ccc(C(=O)N(CCCN(C)C)c2nc3ccc(Br)cc3s2)cc1 (stereo not drawn)
active

Field entry: CCCCCCSc1cc(-c2nc3ccc(C)cn3c2NCCCC)ccc1OC
active

Field entry: Cc1c(CCOC(=O)C23CC4CC(CC(C)(C4)C2)C3)sc[n+]1CC(=O)c1ccccc1
inactive

Field entry: CC(NC(=O)c1ccc([N+](=O)[O-])o1)C12CC3CC(CC(C3)C1)C2 (stereo not drawn)
inactive

Field entry: O/N=C(\c1ccc(Cl)cc1Cl)c1ncc(C(F)(F)F)cc1Cl
inactive

Recorded values, source PubChem BioAssay AID624167.
